molecular target: Hck (UniProt P08631); assay: phosphorylation enrichment, bacterial display (enrichment ratio); higher = better substrate or ligand; peptides without Tyr show the background
Sequence (P08631 whole entry, looked up): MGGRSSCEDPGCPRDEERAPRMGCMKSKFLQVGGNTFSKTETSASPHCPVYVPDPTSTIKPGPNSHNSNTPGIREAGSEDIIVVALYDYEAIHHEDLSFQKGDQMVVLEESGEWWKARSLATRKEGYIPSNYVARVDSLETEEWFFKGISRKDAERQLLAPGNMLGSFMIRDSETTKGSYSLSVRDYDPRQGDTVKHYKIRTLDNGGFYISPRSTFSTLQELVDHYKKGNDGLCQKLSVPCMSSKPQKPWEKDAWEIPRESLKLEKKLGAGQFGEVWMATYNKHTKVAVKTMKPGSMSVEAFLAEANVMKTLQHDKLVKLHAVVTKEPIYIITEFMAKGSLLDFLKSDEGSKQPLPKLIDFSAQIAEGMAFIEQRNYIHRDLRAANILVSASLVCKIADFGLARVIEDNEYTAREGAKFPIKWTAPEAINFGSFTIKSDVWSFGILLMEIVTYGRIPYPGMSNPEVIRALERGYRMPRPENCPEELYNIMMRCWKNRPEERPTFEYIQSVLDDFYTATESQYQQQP
result-type: phosphorylation enrichment
One number for each entry.

seq-text	assay-system	result-type	data-value
NREGVYTDFAP [TGFBI_Y537_V539D]	Hck (UniProt P08631)	phosphorylation enrichment	2.95
DSGKLYALDGL [INO80_Y1104_V1108G]	Hck (UniProt P08631)	phosphorylation enrichment	0.828
KYVKMCDNHQL [MYO9A_Y203_Y203C]	Hck (UniProt P08631)	phosphorylation enrichment	0.432

Record phosphorylation enrichment per entry; entries follow.
1. APSGNYVACGG [GNB1_Y111]
2. KPVDTYYDSTR [DYNC2H1_Y2230_M2227V]
3. SPPILYSFYLN [FCRL6_Y239_D244N]
4. EQLRAYLEGEC [HLA-C_Y183_T187E]

1: 0.429; 2: 0.808; 3: 2.06; 4: 0.533

---

target: Jak2 (UniProt O60674); test: phosphorylation enrichment, bacterial display (enrichment ratio); higher = better substrate or ligand; peptides without Tyr show the background
Sequence (O60674 whole entry, looked up): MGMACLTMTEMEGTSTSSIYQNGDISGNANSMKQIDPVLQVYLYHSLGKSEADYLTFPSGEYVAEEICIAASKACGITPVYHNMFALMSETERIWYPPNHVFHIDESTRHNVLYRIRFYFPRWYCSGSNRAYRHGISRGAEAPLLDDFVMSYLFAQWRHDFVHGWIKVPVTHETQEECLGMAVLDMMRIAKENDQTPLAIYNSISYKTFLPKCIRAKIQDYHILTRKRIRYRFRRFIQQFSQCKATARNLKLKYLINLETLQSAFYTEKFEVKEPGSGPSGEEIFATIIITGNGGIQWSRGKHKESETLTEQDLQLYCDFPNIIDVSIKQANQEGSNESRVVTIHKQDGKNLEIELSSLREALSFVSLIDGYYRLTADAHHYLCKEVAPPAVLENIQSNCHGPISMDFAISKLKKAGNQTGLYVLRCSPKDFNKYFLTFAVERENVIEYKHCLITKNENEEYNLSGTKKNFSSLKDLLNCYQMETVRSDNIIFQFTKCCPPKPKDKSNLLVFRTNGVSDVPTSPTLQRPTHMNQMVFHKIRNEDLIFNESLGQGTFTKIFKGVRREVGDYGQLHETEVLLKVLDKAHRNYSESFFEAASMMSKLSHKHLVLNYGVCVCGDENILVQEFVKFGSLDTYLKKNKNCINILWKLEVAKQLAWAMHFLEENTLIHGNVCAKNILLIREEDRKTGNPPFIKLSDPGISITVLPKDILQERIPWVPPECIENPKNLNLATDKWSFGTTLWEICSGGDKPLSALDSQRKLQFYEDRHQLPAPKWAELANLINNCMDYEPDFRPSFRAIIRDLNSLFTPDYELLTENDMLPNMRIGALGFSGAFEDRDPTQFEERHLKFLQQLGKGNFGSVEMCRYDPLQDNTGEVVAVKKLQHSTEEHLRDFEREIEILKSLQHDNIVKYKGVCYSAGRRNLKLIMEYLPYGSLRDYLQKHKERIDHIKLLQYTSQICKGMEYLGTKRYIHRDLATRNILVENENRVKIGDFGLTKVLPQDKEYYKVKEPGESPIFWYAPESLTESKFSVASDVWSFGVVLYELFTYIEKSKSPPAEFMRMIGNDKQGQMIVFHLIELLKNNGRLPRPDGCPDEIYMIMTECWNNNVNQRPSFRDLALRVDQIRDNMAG
Binary classification by phosphorylation enrichment, with 1 as an inclusive lower bound for class 1; all other cases are class 0.

Consider the following illustrative entries.
seq-text	category-label
STDDGYIDLQF [TMEM230_Y29]	class 1
GGGGSYNVFGN [HNRNPA1_Y312_D314V]	class 0
FADIAYNYRHA [PAH_Y166_G171A]	class 0
QEGPEYWDGET [HLA-A_Y83_Q86G]	class 1
FKDGQYWIRGR [ACSF3_Y466]	class 0
PVKDGYQMAQP [CSF1R_Y873_L868P]	class 0
LARDMCDKEFF [MET_Y1230_Y1230C_YF]	class 1
LINSVYGCSRQ [TMPRSS6_Y290_T287N]	class 1
GEPLSYTRFSL [TFRC_Y20]	class 1
ELTSVYGSRAR [SENP1_Y349_D350G]	class 0

Can RLLVLYPWTQR [HBB_Y36_V35L] be said to have phosphorylation enrichment at or above 1? class 0

Then what about the sequence QAYSWYQHQRA [NDST1_Y714_R709Q] ? class 1

Then what about the sequence SGDDGYAKDAK [TENM4_Y1530] ? class 0

Then what about the sequence SEASFYKSLNL [NGEF_Y289_YF] ? class 1

Then what about the sequence KKMEVYQSIAD [MYBPC3_Y548_L545M] ? class 1

Then what about the sequence SGETKYNPTEA [NBEAL2_Y2748_E2747K] ? class 0

Then what about the sequence PDSVDYPKKGF [CTSK_Y121_R122P_YF] ? class 1

Then what about the sequence ATLDVYNPFET [SCAMP3_Y41] ? class 1

Then what about the sequence QPGTDYKIFLF [FN1_Y1970_YF] ? class 1

Then what about the sequence TTPFNYSFIFK [RAB14_Y8_A4T_YF] ? class 0

Then what about the sequence YPKARYRWLVL [APTX_Y214_H215R] ? class 0

Then what about the sequence GKSDPYHATTG [GJA1_Y247_S251T] ? class 0

Then what about the sequence PTTKTYFRHFD [HBA1_Y43_P45R] ? class 0

---

molecular target: Fes (UniProt P07332); assay: phosphorylation enrichment, bacterial display (enrichment ratio); higher = better substrate or ligand; peptides without Tyr show the background
Sequence (P07332 whole entry, looked up): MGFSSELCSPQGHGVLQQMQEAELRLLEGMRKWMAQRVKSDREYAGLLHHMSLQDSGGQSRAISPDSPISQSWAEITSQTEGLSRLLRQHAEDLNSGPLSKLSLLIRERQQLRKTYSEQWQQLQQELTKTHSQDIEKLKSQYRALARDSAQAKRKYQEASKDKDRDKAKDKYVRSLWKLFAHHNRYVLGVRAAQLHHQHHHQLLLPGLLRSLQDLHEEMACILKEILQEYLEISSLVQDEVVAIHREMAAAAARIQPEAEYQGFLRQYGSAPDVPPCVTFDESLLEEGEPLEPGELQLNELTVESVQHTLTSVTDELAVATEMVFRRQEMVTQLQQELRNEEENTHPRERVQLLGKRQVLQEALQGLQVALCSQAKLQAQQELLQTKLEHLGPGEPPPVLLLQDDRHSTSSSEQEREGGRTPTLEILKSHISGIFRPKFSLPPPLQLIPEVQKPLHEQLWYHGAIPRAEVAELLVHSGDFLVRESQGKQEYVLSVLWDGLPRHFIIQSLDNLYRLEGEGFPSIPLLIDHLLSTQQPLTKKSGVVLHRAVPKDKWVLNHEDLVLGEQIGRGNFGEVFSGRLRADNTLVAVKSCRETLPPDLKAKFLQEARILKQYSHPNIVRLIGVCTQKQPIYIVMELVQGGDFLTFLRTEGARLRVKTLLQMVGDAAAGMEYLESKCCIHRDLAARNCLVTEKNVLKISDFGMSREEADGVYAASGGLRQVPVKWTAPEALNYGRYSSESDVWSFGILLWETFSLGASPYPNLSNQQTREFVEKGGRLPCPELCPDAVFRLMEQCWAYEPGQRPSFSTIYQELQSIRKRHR
result-type: phosphorylation enrichment
Answers are plain numbers.

In the examples that follow, each entry is paired with its recorded phosphorylation enrichment.
seq-text	data-value
TRDVNYGWVIR [MT-CYB_Y75_I78V]	1.45
PQQLWYTHEKK [UBTF_Y207]	0.792
LKVDVYGRSHK [FUT3_Y222]	0.869
KLQKKYGPISS [CYP17A1_Y60_Y64S]	0.553
SSMIDYNLLEK [MYOC_Y479_P481L]	0.954
SVICTYSPALN [TP53_Y126_T123I]	1.44

Record phosphorylation enrichment per entry; entries follow.
1. WGLCSYYETSK [MAGED2_Y448_R446C]
2. SFLSYYTSHVQ [NEFL_Y443_P440L]

1: 1.31; 2: 1.1

Record phosphorylation enrichment per entry; entries follow.
1. RELGEYALAEY [ALDH1A3_Y492]
2. DYYDLYGGEKK [PTPN11_Y66_F71K]

1. 2.76
2. 1.17

Record phosphorylation enrichment per entry; entries follow.
1. FAKTQYPDVYA [CRX_Y63]
2. PIAPVYAASMV [ACAT1_Y331]
3. TNYPLYLRSLE [MTM1_Y71_R69P]
4. SVTCTYSPALT [TP53_Y126_N131T]

1. 0.692
2. 1.07
3. 1.36
4. 1.76

---

Could you please report measured SH2 binding enrichment for the items listed next?
biological target: SHP2-C SH2; experiment: SH2 binding enrichment of the phosphorylated peptide, bacterial display (enrichment ratio); higher = better substrate or ligand; peptides without Tyr show the background;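 further: peptide library displayed on the E. coli surface as eCPX fusions, selected cells deep-sequenced, score is each peptide's frequency after selection divided by its frequency in the input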
Answers are plain numbers.

In the examples that follow, each entry is paired with its recorded SH2 binding enrichment.
seq-text	data-value
ERPGVYTNVVE [F11_Y608]	0.979
GEPLSYTRFSL [TFRC_Y20]	0.519
DGLASYLDKVR [KRT12_Y139_R135G]	0.737
RLLVVYPWTER [HBB_Y36_Q40E]	2.29
VRRVGYVSGWG [HP_Y280_G276R]	0.579
AKKVFYVIETR [SHH_Y253]	1.03

Record SH2 binding enrichment per entry; entries follow.
1. PTTKTYFRHFD [HBA1_Y43_P45R]
2. KKFVPYFDLFM [IPO5_Y530_E525K_YF]
3. PLDGEYSTLQI [TP53_Y327_F328S]
4. VRVQLYDPDYM [CYP4A22_Y100]
5. WQQQSYLDSGS [CTNNB1_Y30_I35S]
6. TLLPDYEDEEE [ZNF830_Y159_S154T]
7. MNPPPYSQLLS [FGF23_Y154_F157L]

1.08
0.831
0.272
1.45
0.582
0.815
0.656

Return reported SH2 binding enrichment; argument: LLVVLCKYRCY [PSEN1_Y154_Y154C] 1.99

---

Could you please report measured phosphorylation enrichment for the items listed next?
biological target: Fyn (UniProt P06241); assay: phosphorylation enrichment, bacterial display (enrichment ratio); higher = better substrate or ligand; peptides without Tyr show the background
Sequence (P06241 whole entry, looked up): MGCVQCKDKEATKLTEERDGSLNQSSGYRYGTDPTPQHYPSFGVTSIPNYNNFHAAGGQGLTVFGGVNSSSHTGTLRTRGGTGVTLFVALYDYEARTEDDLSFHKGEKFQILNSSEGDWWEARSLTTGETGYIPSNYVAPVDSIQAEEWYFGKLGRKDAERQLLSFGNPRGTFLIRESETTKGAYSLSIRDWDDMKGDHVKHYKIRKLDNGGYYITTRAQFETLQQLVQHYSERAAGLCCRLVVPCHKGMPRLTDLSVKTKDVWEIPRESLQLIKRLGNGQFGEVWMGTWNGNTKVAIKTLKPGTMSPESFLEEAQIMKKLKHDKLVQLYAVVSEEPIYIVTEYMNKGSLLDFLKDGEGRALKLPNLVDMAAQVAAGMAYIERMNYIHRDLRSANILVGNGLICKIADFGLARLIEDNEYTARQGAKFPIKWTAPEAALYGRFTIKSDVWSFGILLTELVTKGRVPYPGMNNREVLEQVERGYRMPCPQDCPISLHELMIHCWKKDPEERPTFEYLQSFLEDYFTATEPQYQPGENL

In the examples that follow, each entry is paired with its recorded phosphorylation enrichment.
seq-text	assay-system	phosphorylation enrichment
TNYRFYLRSLE [MTM1_Y71_L70F]	Fyn (UniProt P06241)	0.48
VGIMLYGVDSR [PKD1_Y3143]	Fyn (UniProt P06241)	0.572
SILAVYSKDNF [PANK2_Y400_YF]	Fyn (UniProt P06241)	0.862
LTDTVYSSSSA [OR4C12_Y71_I67T]	Fyn (UniProt P06241)	2.53
YGCGMYSHLQG [LGR4_Y848_D844G]	Fyn (UniProt P06241)	1.51
LECEWYKNGVK [TTN_Y2112_P2107L]	Fyn (UniProt P06241)	0.619

# input for lookup
Under Fyn (UniProt P06241): phosphorylation enrichment value of RLLVVYPWTER [HBB_Y36_Q40E] ? 0.472

---

tested on: c-Abl (mouse); assay: phosphorylation enrichment, bacterial display (enrichment ratio); higher = better substrate or ligand; peptides without Tyr show the background
Binary classification by phosphorylation enrichment, with 0.7 as an inclusive lower bound for Met; all other cases are Not met.

Consider the following illustrative entries.
seq-text	assay-system	category-label
ADCRYYAFPQM [GAMT_Y223]	c-Abl (mouse)	Met
SQAPGYSFTAA [CYCS_Y47_G42S_YF]	c-Abl (mouse)	Met
TNYRFYLRSLE [MTM1_Y71_L70F]	c-Abl (mouse)	Met
TENAGYYFRVS	c-Abl (mouse)	Met
ATLDVYNPFET [SCAMP3_Y41]	c-Abl (mouse)	Met

Can DLVSEYQQYQD [TUBB3_Y422] be said to have phosphorylation enrichment at or above 0.7? Met

Then what about the sequence PTEAQYRFIYM [PTPN11_Y511_Q506P] ? Met

Then what about the sequence PTTKTYFPHFH [HBA1_Y43_D48H] ? Not met

Then what about the sequence LINSVYGCSRQ [TMPRSS6_Y290_T287N] ? Met

Then what about the sequence QMVDMYASSYM [AVPR2_Y124_G122D] ? Met

Then what about the sequence KASRKYYAMKI [AKT3_Y173_G171R] ? Not met

Then what about the sequence LARDMCDKEFF [MET_Y1230_Y1230C_YF] ? Met

Then what about the sequence AVRVFYRKCPH [EPHB2_Y194_R199H] ? Met

Then what about the sequence GIADDYDKKKP [EIF1_Y54_L59P] ? Not met

Then what about the sequence VTVLDYDKIGK [SYT1_Y365] ? Not met

Then what about the sequence RSDEDYLFREE [POR_Y573_YF] ? Met
